experiment: Inhibition of P-gp in human MDA435/LCC6MDR cells assessed as reduction of paclitaxel cytotoxic IC50 by half measured after 5 days by Cell Titer 96 Aqueous assay; assay type: cell-based; conditions: 120 h
Outcome measure: EC50 (nM)
State just the number; it will be interpreted in nM.

Form: molecule = COc1ccc(C2=C(c3ccc(OC)c(OC)c3)C(=O)N(CC(=O)c3ccc(OCc4cc(OC)c(OC)c(OC)c4Br)c(OC)c3)C2=O)cc1OC ; EC50 = 165

* * *

tested on: P-gp; assay: Selectivity index, ratio of IC50 for cytotoxicity against mouse L929 cells to EC50 for inhibition of P-gp in human MDA435/LCC6MDR cells assessed as reduction of paclitaxel cytotoxic IC50 by half; assay type: toxicity, cell-based; conditions: probe paclitaxel, read-out: Ratio IC50/EC50
Outcome measure: selectivity ratio

Entry COc1ccc(C2=C(c3ccc(OC)c(OC)c3)C(=O)N(CC(=O)c3ccc(OCc4cc(OC)c(OC)c(OC)c4Br)c(OC)c3)C2=O)cc1OC , selectivity ratio reported as > 606

src = ChEMBL document CHEMBL3877281
